test system: Leishmania donovani; experiment: Antileishmanial activity against Leishmania donovani MHOM/SD/62/1SCL2D amastigotes after 72 hrs by resazurin reduction assay; assay type: functional, organism-based
REPORTED_METRIC: IC50 (nM)
Kindly provide the numeric value in nM only, without the unit symbol.

# molecule COc1ccccc1C(=O)c1cnc(NC2CCN(C(=O)Nc3ccccc3)CC2)nc1N ; its IC50 = 1000

====

So I've got a bunch of compounds here, and I need their log10 IC50 values.
Biological target: Cdc2-related kinase (Leishmania major, UniProt O96526)
Sequence (O96526 whole entry): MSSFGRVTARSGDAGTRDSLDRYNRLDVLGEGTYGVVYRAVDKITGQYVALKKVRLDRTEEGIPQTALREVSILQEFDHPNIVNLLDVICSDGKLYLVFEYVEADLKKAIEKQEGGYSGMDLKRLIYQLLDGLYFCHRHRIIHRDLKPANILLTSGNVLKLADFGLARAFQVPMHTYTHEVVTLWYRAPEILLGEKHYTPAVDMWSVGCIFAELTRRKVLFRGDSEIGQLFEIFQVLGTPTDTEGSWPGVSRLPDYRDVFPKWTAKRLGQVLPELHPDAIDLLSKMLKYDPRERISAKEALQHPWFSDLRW
Experiment: Inhibition of Leishmania major CRK3 expressed in Escherichia coli BL21 (DE3) using 5FAM-GGGRSPGRRRRK-OH as substrate after 60 mins by IMAP assay
The base-10 logarithm of IC50, taken with IC50 in nM, is what appears here.

Case Cc1ccc(NC(=O)Nc2ccnc(-c3cccnc3)n2)cc1 , Cdc2-related kinase (Leishmania major, UniProt O96526), log10 IC50 recorded as 3.18

Case Oc1ccccc1-c1nc(NCc2cccnc2)c2ccccc2n1 , Cdc2-related kinase (Leishmania major, UniProt O96526), log10 IC50 recorded as 4.04

Case COc1cc(-c2ccc3nc(NC(=O)C4CCCCC4)nn3c2)ccc1O , Cdc2-related kinase (Leishmania major, UniProt O96526), log10 IC50 recorded as 2.38

Case CC(=O)c1cccc(-c2cnn3ccc(Nc4ccc(N5CCOCC5)cc4)nc23)c1 , Cdc2-related kinase (Leishmania major, UniProt O96526), log10 IC50 recorded as 2.41

Case Cc1cc(C)cc(-c2ccc3nc(NC(=O)C4CCCCCC4)n(C)c3c2)c1 , Cdc2-related kinase (Leishmania major, UniProt O96526), log10 IC50 recorded as 0.70

Case Cc1cccc(-c2ccc3nc(NC(=O)C4CCCCC4)nn3c2)c1 , Cdc2-related kinase (Leishmania major, UniProt O96526), log10 IC50 recorded as 1.78

Case Cc1cc(C)cc(-c2ccc3nc(NC(=O)C4CCCCC4)nn3c2)c1 , Cdc2-related kinase (Leishmania major, UniProt O96526), log10 IC50 recorded as 1.30

Case CCN(Cc1ccc(/C=C2\C(=O)Nc3ccccc32)o1)S(C)(=O)=O , Cdc2-related kinase (Leishmania major, UniProt O96526), log10 IC50 recorded as 2.71

====

experiment: Selectivity ratio of cytotoxicity for […] to IC50 for Mycobacterium tuberculosis H37Rv; type: cell-based
So I've got a bunch of compounds here, and I need their selectivity ratio values.

# compound COc1ccccc1-c1cnn2c(Nc3cccc(Cl)c3)cc(C)nc12 ; its selectivity ratio = 19

# compound O=C(OCn1nnc2ccccc2c1=O)c1ccccc1 ; its selectivity ratio = > 28

# compound O=C(Nc1nnc(-c2ccco2)o1)c1ccc(Oc2ccccc2)cc1 ; its selectivity ratio = > 75

# compound CC(C)(C)c1ccc(C(=O)Nc2nnc(-c3cccnc3)o2)cc1 ; its selectivity ratio = > 48

====

target: Cdc2-related kinase (Leishmania major, UniProt O96526); test: Inhibition of Leishmania major CRK3 expressed in Escherichia coli BL21 (DE3) after 30 mins by autoradiography
REPORTED_METRIC: pIC50
Please note pIC50 is a logarithmic value: minus log10 of concentration in mol/L. Answer with that number alone.

# compound COc1ccc(-n2nnc3c(N4CCCC(O)C4)nc(CC4CCCCC4)nc32)cc1 (stereo unspecified) ; its pIC50 = 5.28

====

target: Cyclin-dependent kinase 2 (Homo sapiens, UniProt P24941)
pIC50: −log10 of the molar value.
REPORTED_METRIC: pIC50

Case O=C(CBr)N(c1ccccc1)S(=O)(=O)c1cc(Cl)sc1Cl , Cyclin-dependent kinase 2 (Homo sapiens, UniProt P24941), pIC50 recorded as < 4.70
